Reference for the values: patent US20240173333A1

TEST_DETAILS: Solubility in water
Type: physicochemical
PROTOCOL_CONDITIONS: pH 7, 37° C.
EXPERIMENTAL_READOUT: solubility

solubility reading for CCCCC1(CCCC)CN(c2ccccc2)c2cc(SC)c(OCC(=O)N[C@@H](C(=O)N[C@@H](CC)C(=O)O)c3ccc(O)cc3)cc2S(=O)(=O)N1 : ~30 µg/mL
